Listed here: items and their measured pKi.
- tested-system: UniProt Q15125
# pKi: negative log10 of molar concentration; output just the value

Past entries and their recorded results:
- compound: "CC(C)n1nc(-c2ccnc(C(F)(F)F)c2)cc1[C@H]1[C@@H]2C[C@H](N3CCOCC3)C[C@@H]21 [Compound 172]"
  pKi: 7.87
- compound: "CC(C)n1nc(-c2cncc(C(F)(F)F)c2)cc1[C@H]1CC[C@H](N2CCCOCC2)C1 (single isomer, unassigned) [63*]"
  pKi: 7.84
- compound: "CC(C)n1nc(-c2cccc(C(F)(F)F)n2)nc1[C@H]1[C@@H]2C[C@H](N3CCOC[C@H]3C)C[C@@H]21 [Compound 73]"
  pKi: 6.96

Please report pKi with UniProt Q15125 for item CC(C)n1nc(-c2ccc(C(F)(F)F)c(F)c2)nc1[C@@H]1CC[C@H](N2CCOCC2)C1 (single isomer, unassigned) [Compound 113*] .
8.01

Under UniProt Q15125: report pKi of CC(C)n1nc(-c2cnc(C(F)(F)F)nc2)nc1[C@@H]1CC[C@@H](N2CCO[C@@H](C)C2)C1 [Compound 151] .
6.30

Give UniProt Q15125 pKi for the following compound: CC(C)n1nc(-c2cnc(F)c(C(F)(F)F)c2)nc1[C@H]1CC[C@@H](N2CCOCC2)C1 (single isomer, unassigned) [Compound 158*]
7.47

Return reported pKi for target or system UniProt Q15125, item CC(C)n1nc(-c2cnc(C(F)(F)F)nc2)cc1[C@H]1CC[C@H](N2CCO[C@@H](CF)C2)C1 (single isomer, unassigned) [Compound 130*] .
6.41

Give measured pKi for CC(C)n1nc(-c2cccc(F)c2)cc1[C@H]1[C@@H]2C[C@@H](N3CCCOCC3)C[C@@H]21 [Compound 196*] (UniProt Q15125).
7.90

====

- Test system: zymostenol accumulation (EBP) in EpiSC-derived OPCs
- assay-remarks: GC/MS-based sterol profiling, zymostenol accumulation in EpiSC-derived OPCs
- Type: cell-based, mouse
- condition-set: Mus musculus, 24 h, EpiSC-derived OPCs, 24 hr, 8 doses from 0.15 nM to 333 nM; read-out: Mouse Zymostenol GCMS EC50
value-kind: EC50 (nM)
Provide the reading as a plain figure in nM.

Observe how each entry below is paired with its result.
- molecule: "CC(C)n1nc(-c2ccnc(C(F)(F)F)n2)cc1[C@H]1[C@@H]2C[C@@H](N3CCOCC3)C[C@@H]21"
  tested-system: "zymostenol accumulation (EBP) in EpiSC-derived OPCs"
  EC50, nM: 4.86
- molecule: "CC(C)n1nc(-c2ccc(C(F)(F)F)c(F)c2)nc1[C@H]1CC[C@H](N2CCOCC2)C1 (single isomer, unassigned)"
  tested-system: "zymostenol accumulation (EBP) in EpiSC-derived OPCs"
  EC50, nM: 23.8

Could you now look at the following molecule, please?
Item "CC(C)n1nc(-c2cccc(C(F)(F)F)n2)cc1[C@H]1[C@@H]2C[C@H](N3CCOCC3)C[C@@H]21" : provide EC50
52

====

# key: entry, value: EC50
- System: zymostenol accumulation (EBP) in EpiSC-derived OPCs
- assay-remarks: GC/MS-based sterol profiling, zymostenol accumulation in EpiSC-derived OPCs
- Assay type: cell-based, mouse
- condition-set: Mus musculus, 24 h, EpiSC-derived OPCs, 24 hr, 8 doses from 0.15 nM to 333 nM; read-out: Mouse Zymostenol GCMS EC50
- Method: To assess effects of treatments on OPCs, all treatments were assayed in two or more independent platings of epiblast stem cell-derived OPCs (EpiSC). […] Sterols were monitored using a modified Folch wash protocol (Hubler et al, 2018, Nature). […] After derivatization, 2 μl were analyzed by gas chromatography/mass spectrometry using an Agilent 5973 Network Mass Selective Detector equipped with a 6890 gas chromatograph system and a HP-5MS capillary column (30 m×0.25 mm×0.25 mm). […]
Give the value; after it, write the unit.

- compound: "CC(C)n1nc(-c2ccc(C(F)(F)F)nc2)cc1[C@H]1[C@@H]2C[C@H](N3CCCOCC3)C[C@@H]21 [Compound 48]"
  EC50: "0.00728 µM"
- compound: "CC(C)n1nc(-c2cncc(C(F)(F)F)c2)cc1[C@H]1CC[C@@H](N2CCOCC2)C1 (single isomer, unassigned) [60*]"
  EC50: "0.00552 µM"
- compound: "CC(C)n1nc(-c2cnc(F)c(C(F)(F)F)c2)nc1[C@H]1CC[C@@H](N2CCOCC2)C1 (single isomer, unassigned) [Compound 158*]"
  EC50: "0.00538 µM"
- compound: "CC(C)n1nc(-c2ccc(C(F)(F)F)nc2)nc1[C@H]1CC[C@@H](N2CCCOCC2)C1 [Compound 6]"
  EC50: "0.0105 µM"
- compound: "CC(C)n1nc(-c2ccc(C(F)(F)F)nc2)cc1[C@@H]1CC[C@@H](N2CCN(CCO)CC2)C1 (single isomer, unassigned) [86*]"
  EC50: "0.0287 µM"
- compound: "CC(C)n1nc(-c2cccc(OC(F)(F)F)c2)nc1[C@H]1[C@@H]2C[C@@H](N3CCCOCC3)C[C@@H]21 [Compound 18]"
  EC50: "0.0528 µM"
- compound: "CC(C)n1nc(-c2cccc(C(F)(F)F)n2)cc1[C@H]1[C@@H]2C[C@H](N3CCN(C4CCC4)CC3)C[C@@H]21 [Compound 85]"
  EC50: "0.279 µM"
- compound: "CC(C)n1nc(-c2cncc(C(F)(F)F)c2)cc1[C@H]1[C@@H]2C[C@@H](N3CCO[C@@H](C)C3)C[C@@H]21 (single isomer, unassigned) [39*]"
  EC50: "0.255 µM"
- compound: "CC(C)n1nc(-c2cccc(C#N)c2)cc1[C@H]1[C@@H]2C[C@@H](N3CCCOCC3)C[C@@H]21 [Compound 192*]"
  EC50: "0.0227 µM"
- compound: "CC(C)n1nc(-c2cncc(C(F)(F)F)c2)nc1[C@@H]1CC[C@@H](N2CCOCC2)C1 (single isomer, unassigned) [Compound 115*]"
  EC50: "0.0972 µM"

Now for a further compound.
Report EC50, nothing else, for this compound: CC(C)n1nc(-c2ccc(C(F)(F)F)cc2)cc1[C@H]1[C@@H]2C[C@H](N3CCOCC3)C[C@@H]21 [Compound 173]
0.004 µM

====

- tested-system: human emopamil binding protein and human 7-dehydrocholesterol reductase (hEBP-DHCR7) (Homo sapiens (Human))
value-kind: log10 of Ki (log10 of the value in µM)
Use the decimal logarithm of Ki (µM).

Recorded results for 2 compounds are shown here.
- compound: "CC(C)n1nc([C@H]2CC[C@H](C(F)(F)F)CC2)nc1[C@H]1[C@@H]2C[C@@H](N3CCOC[C@H]3C)C[C@@H]21 (single isomer, unassigned)"
  log10 of Ki: -1.39
- compound: "CC(C)n1nc(-c2cncc(C(F)(F)F)c2)nc1[C@H]1[C@@H]2C[C@@H](N3CCCOCC3)C[C@@H]21"
  log10 of Ki: -1.74

Determine from records and report log10 of Ki for FC(F)(F)c1cccc(-c2nc([C@H]3CC[C@H](N4CCCOCC4)C3)n(C3CC3)n2)n1 (single isomer, unassigned)
-0.95

Give the reported value of log10 of Ki for this record: CC(C)n1nc([C@H]2CC[C@@H](C(F)(F)F)CC2)nc1[C@H]1[C@@H]2C[C@@H](N3CCOC[C@H]3C)C[C@@H]21 (single isomer, unassigned)
-1.60

Using the record for "CC(C)n1nc(-c2ccc(C(F)(F)F)cc2)cc1[C@H]1[C@@H]2C[C@H](N3CCOCC3)C[C@@H]21" , state its measured log10 of Ki.
-2.11

Hello, please tell me recorded log10 of Ki for this one: CC(C)n1nc(-c2cncc(C(F)(F)F)c2)cc1[C@H]1CC[C@@H](N2CCOCC2)C1 (single isomer, unassigned)
-1.72

Fill in reported log10 of Ki for this entry: "CC(C)n1nc(-c2ccc(F)cc2)cc1[C@H]1[C@@H]2C[C@@H](N3CCCOCC3)C[C@@H]21"
-1.67

Using known records, supply log10 of Ki for "CCn1nc(-c2ccc(C(F)(F)F)nc2)nc1[C@H]1CC[C@@H](N2CCCOCC2)CC1"
-0.87

====

# key: entry, value: pKi
- tested-system: human emopamil binding protein and human 7-dehydrocholesterol reductase (hEBP-DHCR7) (Homo sapiens (Human), UniProt Q15125)
- Sequence (Q15125 whole entry): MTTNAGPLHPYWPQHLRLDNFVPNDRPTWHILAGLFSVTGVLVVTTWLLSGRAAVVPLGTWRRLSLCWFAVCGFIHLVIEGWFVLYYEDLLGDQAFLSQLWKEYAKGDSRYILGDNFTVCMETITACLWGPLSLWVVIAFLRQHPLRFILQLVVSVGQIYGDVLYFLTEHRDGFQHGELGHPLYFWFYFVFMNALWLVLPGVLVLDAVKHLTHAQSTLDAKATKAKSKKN
// field semantics: pKi = negative decimal log of concentration (mol/L)

- compound: "CC(C)n1nc(-c2ccnc(C(F)(F)F)n2)cc1[C@H]1[C@@H]2C[C@@H](N3CCOC[C@H]3C)C[C@@H]21"
  pKi: 7.14
- compound: "CC(C)n1nc(-c2ccc(C(F)(F)F)nc2)nc1[C@@H]1CC[C@@H](N2CCOCC2)C1"
  pKi: 7.72
- compound: "CC(C)n1nc(-c2cccc(C(F)(F)F)c2)nc1[C@@H]1CC[C@H](N2CCOCC2)C1 (single isomer, unassigned)"
  pKi: 7.96
- compound: "CC(C)n1nc(-c2ccc(C(F)(F)F)nc2)cc1[C@H]1[C@@H]2C[C@H](N3CCCOCC3)C[C@@H]21"
  pKi: 7.74
- compound: "CC[C@@H]1CN([C@@H]2CC[C@@H](c3nc(-c4cnc(C(F)(F)F)nc4)nn3C(C)C)C2)CCO1"
  pKi: 7.24
- compound: "CC(C)n1nc(-c2cnc(C(F)(F)F)nc2)nc1[C@@H]1CC[C@H](N2CCO[C@H](C)C2)C1"
  pKi: 7.65

Note down pKi recorded for CC(C)n1nc(-c2cncc(C(F)(F)F)c2)nc1[C@H]1CC[C@H](N2CCOCC2)C1 (single isomer, unassigned)
6.77

Please supply the value of reported pKi for the item "CC(C)n1nc(-c2cnc(C(F)(F)F)nc2)nc1[C@H]1CC[C@H](N2CCO[C@H](C)C2)C1"
6.52

Give reported pKi value for CC(C)n1nc(-c2cnc(N)c(C(F)(F)F)c2)cc1[C@H]1[C@@H]2C[C@@H](N3CCOCC3)C[C@@H]21 [Compound A, reference compound]
5.44

For "CC(C)n1nc(-c2cccc(C(F)(F)F)n2)nc1[C@H]1[C@@H]2C[C@@H](N3CCOC[C@H]3C)C[C@@H]21" , write its pKi.
5.93

Indicate its recorded pKi; the compound in question is CC(C)n1nc(-c2cncc(C(F)(F)F)c2)cc1[C@H]1[C@@H]2CC(N3CCOC[C@H]3C)C[C@@H]21 (single isomer, unassigned)
7.19

Fill in reported pKi for this entry: "CC(C)n1nc(-c2ccc(C(F)(F)F)cc2)cc1[C@H]1[C@@H]2C[C@H](N3CCCOCC3)C[C@@H]21"
8.00

Answer with reported pKi of CC(C)n1nc(-c2cccc(C(F)(F)F)c2)nc1[C@H]1CC[C@H](N2CCOCC2)C1 (single isomer, unassigned) [23*]
7.81
